The measured values listed here are drawn from patent EP4624471A1.

Target: PKMYT1 enzyme (Homo sapiens, UniProt Q99640)
Construct: purchased Thermo Scientific A33387
Sequence (Q99640 1-499): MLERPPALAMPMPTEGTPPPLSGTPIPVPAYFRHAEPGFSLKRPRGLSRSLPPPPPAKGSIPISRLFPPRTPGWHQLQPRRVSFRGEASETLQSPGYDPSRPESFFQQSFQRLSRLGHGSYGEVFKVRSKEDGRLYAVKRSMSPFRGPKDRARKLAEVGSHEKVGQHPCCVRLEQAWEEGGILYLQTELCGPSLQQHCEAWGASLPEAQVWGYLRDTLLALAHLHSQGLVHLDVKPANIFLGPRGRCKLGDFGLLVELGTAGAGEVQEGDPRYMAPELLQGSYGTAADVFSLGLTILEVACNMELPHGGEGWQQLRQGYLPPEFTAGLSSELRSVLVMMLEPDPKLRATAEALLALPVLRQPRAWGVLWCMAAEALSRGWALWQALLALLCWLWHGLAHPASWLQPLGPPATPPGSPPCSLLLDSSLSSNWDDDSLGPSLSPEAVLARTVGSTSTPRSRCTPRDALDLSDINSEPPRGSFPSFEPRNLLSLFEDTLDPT
Experiment: PKMYT1 enzyme inhibition activity, ADP-GLO method
Type: biochemical
Conditions: PKMYT1 enzyme 10 nM, ATP 5 µM, 37°C 90 minutes; read-out: ADP-GLO IC50
pIC50 overview
Field pIC50 (float): negative decimal logarithm of the concentration in molar.

Reference set (8 entries):
[[record]]
compound = "Cc1nc(C)c2c(C(N)=O)c(N)n(-c3c(C)ccc(O)c3C)c2n1"
tested_on = "PKMYT1 enzyme (Homo sapiens, UniProt Q99640)"
value_measured = 8.35

[[record]]
compound = "C=Cc1cnc2c(c1)c(C(N)=O)c(N)n2-c1c(C)cc(F)c(O)c1C"
tested_on = "PKMYT1 enzyme (Homo sapiens, UniProt Q99640)"
value_measured = 8.14

[[record]]
compound = "Cc1cc2c(C(N)=O)c(N)n(-c3c(C)c(O)cc(F)c3C)c2nc1C (atropisomer, axis not shown) [Example 22]"
tested_on = "PKMYT1 enzyme (Homo sapiens, UniProt Q99640)"
value_measured = 7.07

[[record]]
compound = "Cc1c(O)cc(F)c(C)c1-n1c(N)c(C(N)=O)c2cc3ccccc3nc21"
tested_on = "PKMYT1 enzyme (Homo sapiens, UniProt Q99640)"
value_measured = 8.55

[[record]]
compound = "Cc1nc2c(cc1-c1ccncc1)c(C(N)=O)c(N)n2-c1c(C)c(O)cc(F)c1C"
tested_on = "PKMYT1 enzyme (Homo sapiens, UniProt Q99640)"
value_measured = 7.98

[[record]]
compound = "Cc1cc(F)c(O)c(C)c1-n1c(N)c(C(N)=O)c2cc(N(C)C)c(C)nc21 (racemic) [Example 169]"
tested_on = "PKMYT1 enzyme (Homo sapiens, UniProt Q99640)"
value_measured = 7.58

[[record]]
compound = "Cc1cc(F)c(O)c(C)c1-n1c(N)c(C(N)=O)c2cc(C(C)C)cnc21 (atropisomer, axis not shown) [Example 170.2]"
tested_on = "PKMYT1 enzyme (Homo sapiens, UniProt Q99640)"
value_measured = 8.00

[[record]]
compound = "Cc1ccc(O)c(C)c1-n1c(N)c(C(N)=O)c2cnc(C3CCOCC3)nc21"
tested_on = "PKMYT1 enzyme (Homo sapiens, UniProt Q99640)"
value_measured = 7.74


Identify the reported pIC50 for the following entry. Cc1ccc(O)c(C)c1-n1c(N)c(C(N)=O)c2cnc(C#CC(C)(C)F)nc21
8.15

Answer with the recorded pIC50 for the compound listed here: Cc1nc2c(cc1-c1nccs1)c(C(N)=O)c(N)n2-c1c(C)c(O)cc(F)c1C
8.04

Identify measured pIC50 associated with Cc1cc(F)c(O)c(C)c1-n1c(N)c(C(N)=O)c2cc(C(C)C)c(C)nc21 (racemic) [Example 159]
7.82

* * *

Target: PKMYT1 enzyme (Homo sapiens)
Construct: purchased Thermo Scientific A33387
Test: PKMYT1 enzyme inhibition activity, ADP-GLO method
Type: biochemical
Details: PKMYT1 enzyme 10 nM, ATP 5 µM, 37°C 90 minutes; read-out: ADP-GLO IC50
Below, each entry is listed with its recorded pIC50.
Quick note: pIC50 means taking -log10 of the concentration in moles per liter.

[[record]]
compound = "Cc1nc2c(cc1C(F)(F)F)c(C(N)=O)c(N)n2-c1c(C)c(O)cc(F)c1C"
value_measured = 8.04

[[record]]
compound = "Cc1cc(F)c(O)c(C)c1-n1c(N)c(C(N)=O)c2cc(CO)c(C)nc21"
value_measured = 8.15

[[record]]
compound = "Cc1ccc(O)c(C)c1-n1c(N)c(C(N)=O)c2cnc(C(F)(F)F)nc21"
value_measured = 7.60

[[record]]
compound = "Cc1cc2c(C(N)=O)c(N)n(-c3c(C)c(O)c(Cl)c(F)c3C)c2nc1C"
value_measured = 7.93


Report pIC50 for Cc1ccc(O)c(C)c1-n1c(N)c(C(N)=O)c2cnc(N3CCCCC3)nc21
7.91

Given the compound C=CCCc1cc2c(C(N)=O)c(N)n(-c3c(C)cc(F)c(O)c3C)c2nc1C , write its reported pIC50.
7.22

Look up and state reported pIC50 for CCc1ccc(O)c(CC)c1-n1c(N)c(C(N)=O)c2cnc(C)nc21
6.58

* * *

Biological target: PKMYT1 enzyme (Homo sapiens, UniProt Q99640)
Construct: purchased Thermo Scientific A33387
Assay: PKMYT1 enzyme inhibition activity, ADP-GLO method
Format: biochemical
Conditions: PKMYT1 enzyme 10 nM, ATP 5 µM, 37°C 90 minutes; read-out: ADP-GLO IC50
pIC50: −log10 of the molar value.
Rule: pIC50 under 8 gives criterion not met, otherwise criterion met.

Completed entries (count: 3):
[[record]]
compound = "Cc1c(O)cc(F)c(C)c1-n1c(N)c(C(N)=O)c2cc3c(nc21)CCC3 [Example 179]"
tested_on = "PKMYT1 enzyme (Homo sapiens, UniProt Q99640)"
assigned_label = "criterion met"

[[record]]
compound = "CCCN(CC)c1ncc2c(C(N)=O)c(N)n(-c3c(C)ccc(O)c3C)c2n1 [Example 83]"
tested_on = "PKMYT1 enzyme (Homo sapiens, UniProt Q99640)"
assigned_label = "criterion not met"

[[record]]
compound = "Cc1cc(F)c(O)c(C)c1-n1c(N)c(C(N)=O)c2cc(C3CC3)c(C)nc21 (atropisomer, axis not shown) [Example 141]"
tested_on = "PKMYT1 enzyme (Homo sapiens, UniProt Q99640)"
assigned_label = "criterion met"


Okay, next one:
Can CCc1nc(C)nc2c1c(C(N)=O)c(N)n2-c1c(C)cc(F)c(O)c1C [Example 67] be said to have pIC50 at or above 8?
criterion not met

* * *

Assay: Metabolic stability in mouse liver microsomes
Details: microsomes
Measured endpoint: microsomal CLint at 1 µM (µL/min/mg)
Expressed in µL/min/mg, but write only the number.

Give microsomal CLint at 1 µM for the following molecule: Cc1cc2c(C(N)=O)c(N)n(-c3c(C)ccc(O)c3C)c2nc1C (atropisomer, axis not shown) [RP-6306, reference compound]
61.3

* * *

Recorded pIC50 by entry
Target: PKMYT1 enzyme (Homo sapiens, UniProt Q99640)
Construct: purchased Thermo Scientific A33387
Assay: PKMYT1 enzyme inhibition activity, ADP-GLO method
Type: biochemical
Settings: read-out: ADP-GLO IC50; PKMYT1 enzyme 10 nM, ATP 5 µM, 37°C 90 minutes
pIC50 is defined as minus the log10 of a concentration measured in mol/L.

[[record]]
molecule = "Cc1ccc(O)c(C)c1-n1c(N)c(C(N)=O)c2cnc(CC(C)C)nc21 (atropisomer, axis not shown)"
value_measured = 7.82

[[record]]
molecule = "Cc1ccc(O)c(C)c1-n1c(N)c(C(N)=O)c2cnc(/C=C/C3CC3)nc21"
value_measured = 8.08

[[record]]
molecule = "Cc1nc(C)c2c(C(N)=O)c(N)n(-c3c(C)ccc(O)c3C)c2n1 (atropisomer, axis not shown)"
value_measured = 8.02

[[record]]
molecule = "COc1nc(C)nc2c1c(C(N)=O)c(N)n2-c1c(C)ccc(O)c1C"
value_measured = 7.81

[[record]]
molecule = "Cc1ccc(O)c(C)c1-n1c(N)c(C(N)=O)c2cc3c(nc21)CCO3 (racemic) [Example 190]"
value_measured = 8.31


Provide pIC50 value for the following molecule: Cc1ccc(O)c(C)c1-n1c(N)c(C(N)=O)c2cc3c(nc21)CCO3 (atropisomer, axis not shown) [Example 190.2]
8.65

Given the molecule Cc1ccc(O)c(C)c1-n1c(N)c(C(N)=O)c2cc3c(ccn3C)nc21 , write its reported pIC50.
8.18

* * *

Biological target: PKMYT1 enzyme (Homo sapiens, UniProt Q99640)
Construct: purchased Thermo Scientific A33387
Assay: PKMYT1 enzyme inhibition activity, ADP-GLO method
Assay type: biochemical
Conditions: PKMYT1 enzyme 10 nM, ATP 5 µM, 37°C 90 minutes; read-out: ADP-GLO IC50
Reported values of IC50 for individual entries
Numbers only here, please. The scale is nM.

A selection of reference data follows.
[[record]]
compound = "Cc1cc2c(C(N)=O)c(N)n(-c3c(C)c(O)cc(F)c3C)c2nc1-c1ccnn1C [Example 124]"
quantity_unit = "nM"
value_measured = 10.4

[[record]]
compound = "Cc1cc(F)c(O)c(C)c1-n1c(N)c(C(N)=O)c2cc3c(nc21)CCCC3 (racemic) [Example 177]"
quantity_unit = "nM"
value_measured = 34.7

[[record]]
compound = "Cc1nc2c(cc1C(=O)O)c(C(N)=O)c(N)n2-c1c(C)c(O)cc(F)c1C [Example 90]"
quantity_unit = "nM"
value_measured = 90.7

[[record]]
compound = "Cc1ccc(O)c(C)c1-n1c(N)c(C(N)=O)c2cncnc21 [Example 45]"
quantity_unit = "nM"
value_measured = 10.8

[[record]]
compound = "CCc1ccc(O)c(C)c1-n1c(N)c(C(N)=O)c2cnc(C)nc21 [Example 68]"
quantity_unit = "nM"
value_measured = 299

[[record]]
compound = "CCc1cc2c(C(N)=O)c(N)n(-c3c(C)c(O)cc(F)c3C)c2nc1C (atropisomer, axis not shown) [Example 132.1]"
quantity_unit = "nM"
value_measured = 6.23

[[record]]
compound = "[2H]C([2H])([2H])c1cc(F)c(O)c(C([2H])([2H])[2H])c1-n1c(N)c(C(N)=O)c2cc(C(F)(F)F)c(C)nc21 [Example 193]"
quantity_unit = "nM"
value_measured = 7.94

[[record]]
compound = "[2H]C([2H])([2H])c1c(O)c(F)cc(C)c1-n1c(N)c(C(N)=O)c2cc(C(F)(F)F)c(C)nc21 (atropisomer, axis not shown) [Example 195.1]"
quantity_unit = "nM"
value_measured = 2.8


// fetch IC50 for Cc1ccc(O)c(C)c1-n1c(N)c(C(N)=O)c2cnc(-c3ccc(F)cc3)nc21 [Example 64] ; system: PKMYT1 enzyme (Homo sapiens, UniProt Q99640)
15.7

Give measured IC50 for Cc1cc2c(C(N)=O)c(N)n(-c3c(C)c(O)c(F)c(F)c3C)c2nc1C [Example 54] (PKMYT1 enzyme (Homo sapiens, UniProt Q99640)).
17.5
